assay: NCI Yeast Anticancer Drug Screen. Data for the mlh1 rad18 strain (AID 175); conditions: S. cerevisiae mlh1 rad18 strain growth inhibition; at 50.0 µM (retest, dose inferred, filed as 5.0); active compounds read high
Compounds without any hit were thinned out: in the full panel of roughly 79,000, 15% have a hit.
Please use the following growth inhibition ranges when assigning a class: low end (below 50%), middle (50% to below 90%), high end (90% or more)

>>> print(df.to_string())
                                    molecule  label_class
 0                  CC(=O)Nc1ccc(SC(C)=O)cc1     high end
 1                Cc1ccc(S/N=C\c2ccccc2O)cc1      low end
 2  Cc1ccc(-n2cc(-c3ccc(Cl)cc3)c(C#N)c2N)cc1       middle
 3  CCCCCCCCCCC1CCC(=O)O1 (centres undefined)       middle
 4          CCCC/C=C/C(CC)(C(=O)OCC)C(=O)OCC      low end
 5  COc1ccc(/C(C)=N/OC(=O)c2c(-c3ccccc3Cl)noc2C)cc1CN1CCOCC1       middle
 6                     CCCCCCCCCCCC(=O)N(C)C     high end
 7  O=C1C(Nc2ccccc2)=C(Oc2ccccc2)C(=O)c2ccccc21      low end
 8               O=[N+]([O-])c1ccc(=S)[nH]c1     high end
 9  O=C1NC(=O)C2C3C=CC(C3)C12 (centres undefined)      low end
10  CCOC(=O)C(NC(=O)c1ccccc1)(N1CCN(c2cc3c(cc2F)c(=O)c(C(=O)O)cn3C2CC2)CC1)C(F)(F)F (centres undefined)      low end
11                       CCCCCCCCCCNC(=O)OCC       middle
12  Cc1nn(-c2cc(Cl)ccc2[N+](=O)[O-])c(C)c1Cl      low end
13            O=C(N=Nc1ccccc1Cl)NNc1ccccc1Cl      low end
14          C/C(=N\NC(=S)SCc1ccccc1)c1ccccn1     high end
15       CC(=O)[O][Bi]([c]1ccccc1)[c]1ccccc1     high end
16  O=C(Nc1ccccc1)C(=O)C(C(=O)c1ccccc1)C(c1ccccc1)c1ccccc1 (centres undefined)       middle
17  COc1ccccc1/C=C1\Sc2scc(-c3cccc([N+](=O)[O-])c3)[n+]2C1=O     high end
18  CCOC(=O)[C@H]1Nc2ccccc2C2c3ccccc3CC21 (some centres undefined)     high end
19  O=C1c2ccccc2C(=O)c2c(NC3CCCCC3)ccc(Nc3ccc(S(=O)(=O)O)cc3)c21       middle
20                 CC1=C(C)Cc2c(O)ccc(O)c2C1     high end
